- test.context: in methanol, 303.15 K
result.type: solubility (mole fraction)
Please state the value as a number alone, without comment.

Fill in the blank: the reported solubility (mole fraction) of "O=C(O)c1cc([N+](=O)[O-])cc([N+](=O)[O-])c1" is ____. 0.059

* * *

- test.context: in ethanol, 303.15 K
result.type: solubility (mole fraction)
Please state the value as a number alone, without comment.

Fill in the blank: the reported solubility (mole fraction) of "O=C(O)c1cc([N+](=O)[O-])cc([N+](=O)[O-])c1" is ____. 0.0456

* * *

- test.context: in n-pentanol, 318.15 K
result.type: solubility (mole fraction)
Please state the value as a number alone, without comment.

Fill in the blank: the reported solubility (mole fraction) of "O=C(O)c1cc([N+](=O)[O-])cc([N+](=O)[O-])c1" is ____. 0.0531

* * *

- test.context: in methyl acetate, 308.15 K
result.type: solubility (mole fraction)
Please state the value as a number alone, without comment.

Fill in the blank: the reported solubility (mole fraction) of "O=C(O)c1cc([N+](=O)[O-])cc([N+](=O)[O-])c1" is ____. 0.0582

* * *

- test.context: in sec-butanol, 283.15 K
result.type: solubility (mole fraction)

Fill in the blank: the reported solubility (mole fraction) of "O=C(O)c1cc([N+](=O)[O-])cc([N+](=O)[O-])c1" is ____. 0.0139

* * *

- test.context: in n-propanol, 283.15 K
result.type: solubility (mole fraction)

Fill in the blank: the reported solubility (mole fraction) of "O=C(O)c1cc([N+](=O)[O-])cc([N+](=O)[O-])c1" is ____. 0.0173

* * *

- test.context: in n-propanol, 323.15 K
result.type: solubility (mole fraction)
Please state the value as a number alone, without comment.

Fill in the blank: the reported solubility (mole fraction) of "O=C(O)c1cc([N+](=O)[O-])cc([N+](=O)[O-])c1" is ____. 0.065

* * *

- test.context: in acetonitrile, 308.15 K
result.type: solubility (mole fraction)

Fill in the blank: the reported solubility (mole fraction) of "O=C(O)c1cc([N+](=O)[O-])cc([N+](=O)[O-])c1" is ____. 0.0162

* * *

- test.context: in n-propanol, 293.15 K
result.type: solubility (mole fraction)

Fill in the blank: the reported solubility (mole fraction) of "O=C(O)c1cc([N+](=O)[O-])cc([N+](=O)[O-])c1" is ____. 0.0224

* * *

- test.context: in isobutanol, 288.15 K
result.type: solubility (mole fraction)
Please state the value as a number alone, without comment.

Fill in the blank: the reported solubility (mole fraction) of "O=C(O)c1cc([N+](=O)[O-])cc([N+](=O)[O-])c1" is ____. 0.00862

* * *

- test.context: in sec-butanol, 293.15 K
result.type: solubility (mole fraction)
Please state the value as a number alone, without comment.

Fill in the blank: the reported solubility (mole fraction) of "O=C(O)c1cc([N+](=O)[O-])cc([N+](=O)[O-])c1" is ____. 0.0201

* * *

- test.context: in isobutanol, 283.15 K
result.type: solubility (mole fraction)
Please state the value as a number alone, without comment.

Fill in the blank: the reported solubility (mole fraction) of "O=C(O)c1cc([N+](=O)[O-])cc([N+](=O)[O-])c1" is ____. 0.00648

* * *

- test.context: in n-butanol, 298.15 K
result.type: solubility (mole fraction)
Please state the value as a number alone, without comment.

Fill in the blank: the reported solubility (mole fraction) of "O=C(O)c1cc([N+](=O)[O-])cc([N+](=O)[O-])c1" is ____. 0.0273

Attribution: BigSolDB 2.1
